Origin of the recorded values: ChEMBL document CHEMBL5226344

- assay.overview: Cytotoxicity against human Huh-7 cells assessed as cell viability at 1 mM incubated for 5 days by Alamar Blue assay
- Format: toxicity, cell-based
- reported.conditions: time 5 day, read-out: Activity
experimental.readout: viability at 120 h, 1000 µM

Exercise: What value of measured viability at 120 h, 1000 µM is listed for CC(C)OC(=O)[C@H](C)N[P@@](=O)(OCC1=C[C@@H](O)[C@H](n2ccc(N)nc2=O)O1)Oc1ccccc1 ?
Solution: > 60%

----------
- assay.overview: Cytotoxicity against African green monkey Vero cells assessed as cell viability at 1 mM incubated for 5 days by Alamar Blue assay
- Type: toxicity, cell-based
- reported.conditions: chlorocebus sabaeus, time 5 day, read-out: Activity
experimental.readout: viability at 120 h, 1000 µM

Exercise: What value of measured viability at 120 h, 1000 µM is listed for CC(C)OC(=O)[C@H](C)N[P@@](=O)(OCC1=C[C@@H](O)[C@H](n2ccc(N)nc2=O)O1)Oc1ccccc1 ?
Solution: > 60%

----------
- assay.overview: Stability of the compound in simulated gastric fluid assessed as parent compound remaining at 200 uM measured after 6 hrs by LC-MS/MS analysis
- Format: physicochemical
- reported.conditions: read-out: Stability
experimental.readout: remaining at 6 h, 200 µM (%)
Only the number, expressed in %, is required.

Exercise: What value of measured remaining at 6 h, 200 µM is listed for CC(C)OC(=O)[C@H](C)N[P@@](=O)(OCC1=C[C@@H](O)[C@H](n2ccc(N)nc2=O)O1)Oc1ccccc1 ?
Solution: 76
